FYI, the data here is from ChEMBL document CHEMBL1201862.

# Test system: KM12
# protocolDescription: NCI tumour cell line growth inhibition, 48 h
Active and inactive are the calls of the source. Cut-off read from the data, not from the text of the source: active = GI50 up to about 1.1 µM and inactive = higher.
Can you answer with just one of these options? active, inactive

[
  {
    "compound": "C/C(=N/Nc1ccc([N+](=O)[O-])cc1[N+](=O)[O-])C(CC(C(=O)NCc1ccccc1)/C(C)=N\\Nc1ccc([N+](=O)[O-])cc1[N+](=O)[O-])C(=O)NCc1ccccc1 (stereo unspecified)",
    "label": "inactive"
  }
]

Inquiry: Dear colleague, could you share the recorded outcome for S=c1sc2c(s1)SCCCCSCCCCSc1sc(=S)sc1SCCCCSCCCCS2 when you have a moment?
Reply text: inactive

Inquiry: Given O=C1C(=C(C(F)(F)Cl)C(F)(F)Cl)C2CCC1C2 (stereo unspecified) , state the outcome it received in this test.
Reply text: inactive

Inquiry: Record lookup: outcome of this test for COC(=NCCC1=CCCCC1)OC ?
Reply text: inactive

Inquiry: Which outcome did this test record for the compound O=C(c1ccc(Cl)cc1)N(Cc1cccnc1)C(=S)N(Cc1cccnc1)C(=O)c1ccc(Cl)cc1 ?
Reply text: inactive

Inquiry: Hi team, can someone confirm the assay call for Oc1ccc(/C=N/c2nccs2)c(O)c1 ?
Reply text: inactive

Inquiry: Short answer needed: outcome of this test for C/C1=C\[C@H](C)C[C@H](C)OC(=O)C[C@H](c2ccc(O)cc2)NC(=O)[C@H](Cc2ccc(O)c(Br)c2)N(C)C(=O)[C@H](C)NC(=O)[C@@H](C)C1 ?
Reply text: inactive

Inquiry: For this compound, state the assay outcome: C=CCn1c(=O)c(Br)nn(CCOCP(=O)(OCC)OCC)c1=O
Reply text: inactive

Inquiry: // param item: CC(=O)Oc1c(-c2ccccc2)oc2ccccc12 ; yields the recorded call
Reply text: active

Inquiry: So what was the verdict on Cn1c(O)c(C(=O)NC2CCCCC2)c(=O)n(C)c1=S in this test?
Reply text: inactive

Inquiry: What did the test return for C=CCN1C[C@H](C)N([C@H](c2ccc(C(=O)N(CC)CC)cc2)c2cccc(OC)c2)C[C@H]1C [SNC-80] ?
Reply text: inactive

Inquiry: Which outcome was entered for the compound COCN1COCN/C1=N\C#N in this test?
Reply text: inactive

Inquiry: Recorded test call requested for O=C(CC(C(=O)c1cccs1)c1ccccc1)c1ccccc1O (stereo unspecified)
Reply text: inactive

Inquiry: For C=C(C)[C@@H]1CC[C@@H](C)[C@](O)([C@@H]2C[C@@H]([C@H](COC(=O)c3ccccc3)OC(=O)c3ccccc3)OC2=O)C1 , which call appears in the assay record?
Reply text: inactive

Inquiry: Call for entry Cc1cc(O)c(C(=O)O)c2c1C(=O)c1c(O)c(OCC(O)C(O)C(O)C(O)CO)c(O)c(O)c1C2=O.NCCNCCO (stereo unspecified) :
Reply text: inactive

Inquiry: Tell me the recorded outcome of this test for CC(=O)CC(=O)ON(C)C(=O)Cc1ccccc1 .
Reply text: inactive

Inquiry: Per the records of this test, what outcome belongs to N#Cc1c2nc3ccccc3nc2n2ccccc12 ?
Reply text: inactive

Inquiry: I would be grateful if you could indicate the recorded call for O=[N+]([O-])c1cc(F)ccc1Sc1ccccc1 .
Reply text: inactive

Inquiry: What is the recorded call for this compound in the test? CC(=O)CC(=O)CCC(=O)O [SUCCINYLACETONE]
Reply text: inactive

Inquiry: Could you kindly confirm the outcome this assay logged for COC(=O)C1(c2ccc(OC)cc2)NC(c2ccccc2)C2C(=O)N(c3ccc(OC)cc3)C(=O)C21 (stereo unspecified) ?
Reply text: inactive

Inquiry: Outcome logged for COC(=O)Cc1c(-c2c(CC(=O)OC)c3ccccc3n2C2OC(COC(C)=O)C(OC(C)=O)C(OC(C)=O)C2OC(C)=O)[nH]c2ccccc12 (stereo unspecified) in this assay:
Reply text: inactive

====

# Tested on: T47D
# protocolDescription: NCI tumour cell line growth inhibition, 48 h
The source made the active and inactive calls. Cut-off read from the data, not from the text of the source: active = GI50 up to about 1.1 µM and inactive = higher.
Below is a list of entries, each paired with its recorded GI50 value.

[
  {
    "molecule": "O=C1NC(=O)c2ccccc2/C1=C/c1ccc2c(c1)OCO2",
    "GI50": "> 100 µM (inactive)"
  },
  {
    "molecule": "COC(=O)/C=C(\\S/C=C(/c1ccccc1)N1CCn2c(C(=O)c3ccccc3)c(C(=O)OC)c(C(=O)OC)c21)C(=O)OC",
    "GI50": "2.92 µM (inactive)"
  }
]

Inquiry: Missing value: GI50, T47D, entry O=C1C2CC=CCC2C(=O)N1n1c(Cc2ccc(Cl)cc2)n[nH]c1=O (stereo not drawn) . Fill in?
Reply text: > 100 µM (inactive)

====

# Tested on: SF-295
# protocolDescription: NCI tumour cell line growth inhibition, 48 h
Activity calls are given as the source filed them. Cut-off read from the data, not from the text of the source: active = GI50 up to about 1.1 µM and inactive = higher.
Recorded GI50 by entry

Here is how some compounds turned out for GI50.
[
  {
    "compound": "CC(=O)Oc1cc(Cl)c(OC(C)=O)c2c(OC(C)=O)c(C)c(O[Si](C)(C)C(C)(C)C)cc12",
    "systemTested": "SF-295",
    "GI50": "11 µM (inactive)"
  },
  {
    "compound": "CC(CCCOC(c1ccccc1)(c1ccccc1)c1ccccc1)OC(=O)Nc1cc([N+](=O)[O-])cc([N+](=O)[O-])c1 (centres undefined)",
    "systemTested": "SF-295",
    "GI50": "27 µM (inactive)"
  },
  {
    "compound": "C[C@H]1O[C@@H](c2c(O)ccc3ccccc23)C[C@@H](N(C)C)C1O (some centres undefined)",
    "systemTested": "SF-295",
    "GI50": "> 100 µM (inactive)"
  },
  {
    "compound": "O=c1[nH]cnc2cccc(Cl)c12",
    "systemTested": "SF-295",
    "GI50": "> 100 µM (inactive)"
  },
  {
    "compound": "CC1(CCCC2(C)CCNC2=O)OCCO1 (centres undefined)",
    "systemTested": "SF-295",
    "GI50": "> 10 µM (inactive)"
  }
]

Inquiry: # lookup: GI50 of COc1cc(CNc2cnc3cc(N)ccc3n2)cc(OC)c1OC
Reply text: 17.3 µM (inactive)

Inquiry: Tell me the measured GI50 of C=CC1(c2ccc(Br)cc2)OCCCO1 , please.
Reply text: > 100 µM (inactive)

Inquiry: Request the reported GI50 associated with CCN(CC(=O)O)CC(=O)O
Reply text: > 100 µM (inactive)

Inquiry: Find the recorded GI50 belonging to Cc1c(/C=N/NS(=O)(=O)c2ccccc2)no[n+]1[O-] and report it.
Reply text: > 100 µM (inactive)

====

Recorded measurements of GI50, one per entry
# Test system: SK-MEL-5
# protocolDescription: NCI tumour cell line growth inhibition, 48 h
The source made the active and inactive calls. Cut-off read from the data, not from the text of the source: active = GI50 up to about 1.1 µM and inactive = higher.

Inquiry: Which measured GI50 value corresponds to O=C(O)C/C(=C\c1ccco1)C(=O)O ?
Reply text: > 100 µM (inactive)

Inquiry: Data request, read-out GI50, for Cc1c2ccccc2c(CSC(=N)N)c2ccccc12
Reply text: 0.162 µM (active)

Inquiry: What measured GI50 goes with N#Cc1c2nc3ccccc3nc2n2ccccc12 ?
Reply text: > 100 µM (inactive)

====

# Test system: RPMI-8226
# protocolDescription: NCI tumour cell line growth inhibition, 48 h
Activity calls are given as the source filed them. Cut-off read from the data, not from the text of the source: active = GI50 up to about 1.1 µM and inactive = higher.
recordedEndpoint: GI50

Worked cases, GI50 given:
[
  {
    "molecule": "CCN(CC)CCSc1c(C(C)=O)c(=O)n(-c2ccccc2)c(=S)n1-c1ccccc1",
    "GI50": "2.13 µM (inactive)"
  },
  {
    "molecule": "O=C1C=CC(=O)c2c1ccc1c3ccccc3n(CCCCCn3c4ccccc4c4ccc5c(c43)C(=O)C=CC5=O)c21",
    "GI50": "4.14 µM (inactive)"
  },
  {
    "molecule": "CCc1nc(N)nc(N)c1-c1ccc(N(C)Cc2ccccc2)c([N+](=O)[O-])c1",
    "GI50": "0.191 µM (active)"
  },
  {
    "molecule": "Oc1c(/N=N\\c2ccccc2)c2cccc3ccc4cccc1c4c32",
    "GI50": "> 100 µM (inactive)"
  },
  {
    "molecule": "O=[PH](O)c1cccs1",
    "GI50": "> 100 µM (inactive)"
  },
  {
    "molecule": "C/C(=N/Nc1ccc([N+](=O)[O-])cc1[N+](=O)[O-])C(CC(C(=O)NCc1ccccc1)/C(C)=N\\Nc1ccc([N+](=O)[O-])cc1[N+](=O)[O-])C(=O)NCc1ccccc1 (stereo unspecified)",
    "GI50": "14.7 µM (inactive)"
  },
  {
    "molecule": "COCn1cnc2c(=O)n(-c3ccc(OC)cc3)c(=S)n(-c3ccc(OC)cc3)c21",
    "GI50": "> 100 µM (inactive)"
  },
  {
    "molecule": "Nc1cc[nH]c(=O)n1",
    "GI50": "> 100 µM (inactive)"
  },
  {
    "molecule": "Cc1c2cc[n+](C)cc2c(C)c2c1[nH]c1ccccc12",
    "GI50": "8.49 µM (inactive)"
  },
  {
    "molecule": "Cc1ccsc1/C=N/NC1=NCCN1",
    "GI50": "> 100 µM (inactive)"
  }
]

Inquiry: // lookup GI50 for CN(C)CCN1C(=O)CC[C@@]2(C)C1=CC[C@@H]1[C@@H]2CC[C@@]2(C)[C@H]1CC[C@]2(C)O
Reply text: > 100 µM (inactive)

Inquiry: # query: GI50 of entry COc1ccc(-n2cnc3c(NC(CCSC)C(=O)O)ncnc32)cc1 (stereo unspecified)
Reply text: > 100 µM (inactive)

Inquiry: So what's the measured GI50 for this one? Nc1nc(-c2ccccc2)nc2oc(-c3cccs3)nc12
Reply text: > 100 µM (inactive)

Inquiry: GI50 lookup needed for COc1ccc(-c2nc(Sc3c([N+](=O)[O-])ncn3C)n[nH]2)cc1 , thanks.
Reply text: 3.66 µM (inactive)

Inquiry: Dear colleague, I am looking for the recorded GI50 of the following molecule: CC1=NN(C(=O)CC(=O)Nc2ccc(C)cc2)C(=O)C1/N=N/c1ccc(C(=O)O)cc1 (stereo unspecified)
Reply text: > 100 µM (inactive)

Inquiry: Reported GI50, molecule C=CC1(c2ccc(Br)cc2)OCCCO1 : ____
Reply text: > 100 µM (inactive)
